Target: EPHB1 (UniProt P54762)
Sequence (P54762 whole entry, looked up): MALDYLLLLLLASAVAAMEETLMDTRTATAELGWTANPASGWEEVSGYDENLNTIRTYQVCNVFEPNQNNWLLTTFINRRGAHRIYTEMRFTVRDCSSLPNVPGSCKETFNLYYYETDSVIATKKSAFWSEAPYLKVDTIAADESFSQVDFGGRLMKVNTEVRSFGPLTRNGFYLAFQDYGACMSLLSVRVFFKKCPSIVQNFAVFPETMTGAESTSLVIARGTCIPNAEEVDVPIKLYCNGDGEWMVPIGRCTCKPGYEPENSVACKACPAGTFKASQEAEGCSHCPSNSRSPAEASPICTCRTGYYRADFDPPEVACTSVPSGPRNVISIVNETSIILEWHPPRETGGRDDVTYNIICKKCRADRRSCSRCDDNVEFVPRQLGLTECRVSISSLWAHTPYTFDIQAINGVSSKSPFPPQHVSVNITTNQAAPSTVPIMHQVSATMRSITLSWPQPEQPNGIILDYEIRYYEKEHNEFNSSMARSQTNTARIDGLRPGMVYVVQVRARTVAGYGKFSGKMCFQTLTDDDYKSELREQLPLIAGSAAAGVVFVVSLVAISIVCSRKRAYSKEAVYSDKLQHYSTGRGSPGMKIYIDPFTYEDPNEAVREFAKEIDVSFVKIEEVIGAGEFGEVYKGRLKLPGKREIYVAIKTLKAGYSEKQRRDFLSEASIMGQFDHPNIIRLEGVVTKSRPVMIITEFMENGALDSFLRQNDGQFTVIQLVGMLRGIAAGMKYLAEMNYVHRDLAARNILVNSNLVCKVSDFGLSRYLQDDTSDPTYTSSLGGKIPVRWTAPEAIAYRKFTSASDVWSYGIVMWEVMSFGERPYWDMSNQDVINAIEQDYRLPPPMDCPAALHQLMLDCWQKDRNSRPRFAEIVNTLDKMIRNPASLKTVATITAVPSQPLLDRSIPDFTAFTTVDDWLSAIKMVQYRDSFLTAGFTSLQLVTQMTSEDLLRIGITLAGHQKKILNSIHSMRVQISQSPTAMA
Assay: phosphorylation enrichment, bacterial display (enrichment ratio); higher = better substrate or ligand; peptides without Tyr show the background
Values of phosphorylation enrichment greater than or equal to 0.5 map to yes (1); values below map to no (0).

phosphorylation enrichment >= 0.5 for TSPKSCPSQKH [CAP2_Y316_Y316C] ?
no (0)

Now give it for PNRILYGDFRQ [MYH6_Y717] too.
yes (1)

Now give it for MIHSAYALGGL [CPS1_Y590_R587H] too.
no (0)

Now give it for LEFGDCHPLKP [VPS35L_Y32_Y32C] too.
yes (1)

Now give it for LAETSYVTVLE [MAGEA1_Y276_K278T] too.
yes (1)

Now give it for GEHSIYCTVNN [CD55_Y266] too.
yes (1)

Now give it for LNPVVYTLRNA [OR4C12_Y285] too.
yes (1)

Now give it for KTDKKYLMIEE [BAG3_Y451] too.
no (0)

Now give it for SVVVPYEPPDV [TP53_Y220_E224D] too.
yes (1)

Now give it for RLLRGYRQDAY [HLA-A_Y137_F133L] too.
no (0)

----------
Target: SHP2-C SH2;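 also: peptide library displayed on the E. coli surface as eCPX fusions, selected cells deep-sequenced, score is each peptide's frequency after selection divided by its frequency in the input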
Assay: SH2 binding enrichment of the phosphorylated peptide, bacterial display (enrichment ratio); higher = better substrate or ligand; peptides without Tyr show the background
Measured Attribute: SH2 binding enrichment

// solved cases for SH2 binding enrichment follow
                         seq_string      measured_attribute  result
0  PSQRRNVFFFS [PTEN_Y174_Y174N_YF]  SH2 binding enrichment    1.09
1       RKELFYKADGE [SERPINC1_Y272]  SH2 binding enrichment   0.942
2      DSMQSYDLDFP [UNC13B_Y243_YF]  SH2 binding enrichment   0.686

Using the record for RFLRGYRQHAY [HLA-A_Y137_D140H] , report its SH2 binding enrichment.
0.57

Now give it for FARNCYVAGQF [G6PD_Y107_S106C_YF] too.
0.383

Now give it for AGQERYRAITS [RAB11B_Y73] too.
0.412

Now give it for KIVQDYLEKFF [MMP8_Y36_T32I_YF] too.
1.19

Now give it for QPDFLYDHIQP [TRRAP_Y862] too.
0.369

Now give it for VVDVTYDDVPI [FLNB_Y1308_E1305D] too.
0.866

Now give it for RGKEPYTKKAL [TTC21B_Y160] too.
0.78

Now give it for PTTMTYFPHFD [HBA1_Y43_K41M] too.
0.782

Now give it for VATRWYRSPEL [CDKL5_Y177] too.
0.604

Now give it for TEDAEYDVQSK [PTCHD3_Y335_P333A] too.
0.698

Now give it for SVVVPYEPPDV [TP53_Y220_E224D] too.
0.73

Now give it for EDSEFYRAFEE [CASQ2_Y179_K180R_YF] too.
0.682

Now give it for ENEGTYVCIAA [ADAMTSL3_Y1365_T1370A] too.
0.402

Now give it for LASLIYNFVLF [AQP6_Y231] too.
0.989

Now give it for STSFDYCRVPM [BST2_Y8_YF] too.
0.571

Now give it for DNPAKYFILES [DPP10_Y512] too.
0.749

Now give it for TCFDKYTGSTF [FN1_Y101_N104S_YF] too.
0.956

Now give it for MKGDFYCFLAE [YWHAG_Y131_R132C_YF] too.
0.742

Now give it for KANEFYPVVII [ADAMTS18_Y765_L769I_YF] too.
0.597

Now give it for YSIDHYLGKEM [G6PD_Y202_R198S] too.
0.781

Now give it for SVVVTYEPPEV [TP53_Y220_P219T] too.
0.761

Now give it for ATGLIYIGSHD [AASDH_Y870_T865A] too.
0.526

Now give it for LNPLIYTLRNA [OR4C46_Y285_K288R] too.
0.738

----------
Tested on: Fer (mouse)
Assay: phosphorylation enrichment, bacterial display (enrichment ratio); higher = better substrate or ligand; peptides without Tyr show the background
Listing of entries alongside the reported phosphorylation enrichment.
Respond using a number only.

// solved cases for phosphorylation enrichment follow
In [3]: df
Out[3]:
                           seq_string  numeric_readout
0        ITNVLYHVVGW [GBA_Y412_L410V]             1.82
1  RPSELYFSKIS [SMG1_Y2253_G2258S_YF]            0.724

Request - read-out phosphorylation enrichment | tested on Fer (mouse) | sequence KVGPGSLGSGG [RET_Y826_Y826S]
0.293

Now give it for SSPQLYLVPFL [TAF4_Y652_P651L] too.
1.23

Now give it for NTGDYCDLYGG [PTPN11_Y63_Y63C] too.
1.48

Now give it for VDSLRYIFPKL [EIF2B3_Y92_A87V_YF] too.
0.463

Now give it for SQGRQYQELPR [KCNH2_Y1009_R1005Q] too.
0.402

Now give it for NIRKKYFRAIL [CHD7_Y1217_Q1214R_YF] too.
0.394

Now give it for LEFGDCHPLKP [VPS35L_Y32_Y32C] too.
1.24

----------
Tested on: c-Abl (mouse)
Assay: phosphorylation enrichment, bacterial display (enrichment ratio); higher = better substrate or ligand; peptides without Tyr show the background
// bucketize phosphorylation enrichment: Low (below 0.6), Mid (0.6 to below 0.9), High (0.9 or more)

>>> print(df.to_string())
                       seq_string  category
0       EVDELYREAPI [MYL12B_Y143]      High
1                     ANVKWYRNGRE       Low
2     KDQGIYEDYVE [MYL6_Y86_T85I]       Mid
3   SVTCTYSPAPN [TP53_Y126_L130P]       Mid
4  CEETFYTMKMN [MASP2_Y401_V405M]      High
5     PGVDRYSLGTS [C5orf42_Y1451]       Mid
6  VSTKVYKRFPS [BEST1_Y148_A146K]       Low
7          RRIHSYRGHLW [VHL_Y112]      High
8    CQLENYCNGGG [INS_Y108_Y103C]       Mid
9         AGNPAYRSFSN [IL4R_Y497]       Mid

Which bin, given its phosphorylation enrichment, does FKDYFYCWNTF [AICDA_Y146] occupy?
High

Now give it for PSQRRNVFFFS [PTEN_Y174_Y174N_YF] too.
Mid

----------
Target: Fyn (UniProt P06241)
Sequence (P06241 whole entry, looked up): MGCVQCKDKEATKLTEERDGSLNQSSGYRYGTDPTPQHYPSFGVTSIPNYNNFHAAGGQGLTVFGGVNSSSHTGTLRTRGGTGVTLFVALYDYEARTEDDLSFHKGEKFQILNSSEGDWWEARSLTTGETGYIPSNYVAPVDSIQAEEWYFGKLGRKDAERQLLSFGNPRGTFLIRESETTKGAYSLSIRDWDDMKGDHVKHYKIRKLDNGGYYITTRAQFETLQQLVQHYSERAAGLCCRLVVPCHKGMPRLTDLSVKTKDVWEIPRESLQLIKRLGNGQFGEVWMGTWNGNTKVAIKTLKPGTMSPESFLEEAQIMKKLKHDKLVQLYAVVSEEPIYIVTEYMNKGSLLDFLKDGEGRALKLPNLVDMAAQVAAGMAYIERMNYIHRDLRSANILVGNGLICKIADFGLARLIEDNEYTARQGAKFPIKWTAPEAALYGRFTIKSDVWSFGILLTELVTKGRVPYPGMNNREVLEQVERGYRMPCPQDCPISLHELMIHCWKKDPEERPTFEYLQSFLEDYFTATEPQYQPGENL
Assay: phosphorylation enrichment, bacterial display (enrichment ratio); higher = better substrate or ligand; peptides without Tyr show the background
Listing of entries alongside the reported phosphorylation enrichment.
Respond using a number only.

// solved cases for phosphorylation enrichment follow
                 seq_string          study_system  numeric_readout
0  YDRREYSRFEK [ITGB7_Y758]  Fyn (UniProt P06241)            0.498
1  YLTSSYINIST [IL23R_Y178]  Fyn (UniProt P06241)            0.488

Request - read-out phosphorylation enrichment | tested on Fyn (UniProt P06241) | sequence ATDLAYYLVCK [ASL_Y375_R379C]
0.852

Now give it for YGSSSYGGAGG [RPA2_Y14] too.
0.414

Now give it for NGQAVYAACQT [XDH_Y1092] too.
4.76

Now give it for TFAVSYLPDMS [FLNC_Y1602_T1599A_YF] too.
0.466

Now give it for VISNAYVDLSP [HSD17B4_Y602_A606S] too.
0.534

----------
Target: Fyn (UniProt P06241)
Test: phosphorylation enrichment, bacterial display (enrichment ratio); higher = better substrate or ligand; peptides without Tyr show the background
Values of phosphorylation enrichment greater than or equal to 0.7 map to yes (1); values below map to no (0).

                           seq_string          study_system  category
0       STTSDYQWDFS [MTDH_Y364_V368F]  Fyn (UniProt P06241)    no (0)
1       ATATEYHTTSH [SLC4A1_Y46_D45E]  Fyn (UniProt P06241)    no (0)
2      RFLRGYRQHAY [HLA-A_Y137_D140H]  Fyn (UniProt P06241)    no (0)
3             IALSKYGRVKR [FGF6_Y186]  Fyn (UniProt P06241)    no (0)
4  GIVEDYRPRFF [ACVRL1_Y421_P424R_YF]  Fyn (UniProt P06241)    no (0)
5   SILTVYSKDNF [PANK2_Y400_A398T_YF]  Fyn (UniProt P06241)    no (0)
6           PDGHEYIYVDP [PDGFRA_Y572]  Fyn (UniProt P06241)   yes (1)
7      PPAPRCHHSAV [LZTR1_Y119_Y119C]  Fyn (UniProt P06241)   yes (1)

phosphorylation enrichment >= 0.7 for KLSFSYGWALQ [ALDOB_Y302_R304W] ?
no (0)

Now give it for AAQNCYKVTNA [TPI1_Y105_G110A] too.
no (0)

Now give it for GEHSIYCTVNN [CD55_Y266] too.
yes (1)

Now give it for TVQVAYYTVMM [SPATA17_Y83_M86V] too.
yes (1)
